These measurements were taken from the NIST ThermoML archive (doi:10.1021/acs.jced.5b00242).

# CONDITION CONTEXT: 333.15 K; 101 kPa; Liquid; Stabinger Viscometer
READOUT TYPE: viscosity (mPa·s)
Numbers only, in mPa·s.

[
  {
    "MOLECULE": "CC[n+]1ccn(C)c1.N[C@@H](CO)C(=O)[O-] [3-ethyl-1-methyl-1H-imidazolium L-serinate]",
    "QUANTITATIVE READOUT": 157.29
  },
  {
    "MOLECULE": "CCn1cc[n+](C)c1.C[C@H](N)C(=O)[O-] [1-ethyl-3-methylimidazolium L-alaninate]",
    "QUANTITATIVE READOUT": 40.5
  },
  {
    "MOLECULE": "CCn1cc[n+](C)c1.NCCS(=O)(=O)[O-] [1-ethyl-3-methylimidazolium taurinate]",
    "QUANTITATIVE READOUT": 69.36
  }
]

Attention now turns to another entry.
Note down viscosity recorded for CCn1cc[n+](C)c1.O=C([O-])[C@@H]1CCCN1 [1-ethyl-3-methyl-1H-imidazolium L-prolinate]
108.85
